The reported measurements were obtained from patent US10052320B2.

Here the recorded IC50 is given for each entry.
target: FGFR1 (h) (Homo sapiens, UniProt P11362); experiment: FGFR1 (enzymatic assay), TR-FRET; format: biochemical; conditions: read-out: FGFR 1 pIC50 (converted)
Sequence (P11362 22-822): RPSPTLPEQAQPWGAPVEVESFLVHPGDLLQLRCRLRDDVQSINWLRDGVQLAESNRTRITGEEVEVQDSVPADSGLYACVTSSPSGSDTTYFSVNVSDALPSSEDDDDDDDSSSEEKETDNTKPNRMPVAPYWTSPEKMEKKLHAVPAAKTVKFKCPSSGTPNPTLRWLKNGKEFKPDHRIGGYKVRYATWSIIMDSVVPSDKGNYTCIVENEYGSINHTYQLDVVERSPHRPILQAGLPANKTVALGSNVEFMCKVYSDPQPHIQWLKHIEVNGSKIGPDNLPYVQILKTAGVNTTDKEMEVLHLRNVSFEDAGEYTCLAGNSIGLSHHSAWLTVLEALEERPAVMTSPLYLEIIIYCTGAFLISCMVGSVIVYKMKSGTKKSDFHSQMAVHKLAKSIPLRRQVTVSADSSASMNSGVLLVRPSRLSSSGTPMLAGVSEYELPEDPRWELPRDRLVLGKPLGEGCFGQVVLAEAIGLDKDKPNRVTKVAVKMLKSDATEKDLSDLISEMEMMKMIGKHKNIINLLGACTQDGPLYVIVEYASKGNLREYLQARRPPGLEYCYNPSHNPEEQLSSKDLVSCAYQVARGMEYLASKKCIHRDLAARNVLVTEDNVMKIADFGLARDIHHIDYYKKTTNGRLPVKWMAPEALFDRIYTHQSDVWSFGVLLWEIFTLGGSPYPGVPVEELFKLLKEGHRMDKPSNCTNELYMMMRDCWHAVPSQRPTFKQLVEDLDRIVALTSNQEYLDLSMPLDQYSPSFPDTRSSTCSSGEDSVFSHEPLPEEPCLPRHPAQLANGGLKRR
State the answer as a number, implicitly in nM.

Solved entries:
| compound | uom | IC50 |
| --- | --- | --- |
| COc1cc(OC)cc(N(CCO)c2ccc3ncc(-c4ccc(N5CCNCC5)cc4)nc3c2)c1 | nM | 0.513 |
| COc1cc(OC)cc(N(CCNC(C)C)c2ccc3ncc(NCC4CCNCC4)nc3c2)c1 | nM | 5.89 |
| CNC(=O)c1cc(-c2cnc3ccc(N(CCN4CCCC4CO)c4cc(OC)cc(OC)c4)cc3n2)ccn1 (stereo not shown) | nM | 16.2 |
| COCC(O)CN(c1cc(OC)cc(OC)c1)c1ccc2ncc(-c3cccnc3)nc2c1 (single isomer, unassigned) [Compound 47] | nM | 21.4 |
| COc1cc(OC)cc(N(CCO)c2ccc3ncc(-c4ccc(N)nc4)nc3c2)c1 | nM | 5.43 |

Query block: // output IC50; input COCC(O)CN(c1cc(OC)cc(OC)c1)c1ccc2ncc(-c3cccnc3)nc2c1 (single isomer, unassigned) [Compound 46] ; system FGFR1 (h) (Homo sapiens, UniProt P11362)
Result block: 12.6

Query block: State IC50 on FGFR1 (h) (Homo sapiens, UniProt P11362). Entry: COc1cc(OC)cc(N(CC2CC2)c2ccc3ncc(-c4ccnc(N5CCN(C)CC5)c4)nc3c2)c1
Result block: 30.2

----------
target: Ba/F3-FGFR4-transfected cells (Homo sapiens, UniProt P22455); assay: Ba/F3-FGFR4 cellular proliferation assay, Alamar Blue; format: cell-based
Sequence (P22455 whole entry, change not shown): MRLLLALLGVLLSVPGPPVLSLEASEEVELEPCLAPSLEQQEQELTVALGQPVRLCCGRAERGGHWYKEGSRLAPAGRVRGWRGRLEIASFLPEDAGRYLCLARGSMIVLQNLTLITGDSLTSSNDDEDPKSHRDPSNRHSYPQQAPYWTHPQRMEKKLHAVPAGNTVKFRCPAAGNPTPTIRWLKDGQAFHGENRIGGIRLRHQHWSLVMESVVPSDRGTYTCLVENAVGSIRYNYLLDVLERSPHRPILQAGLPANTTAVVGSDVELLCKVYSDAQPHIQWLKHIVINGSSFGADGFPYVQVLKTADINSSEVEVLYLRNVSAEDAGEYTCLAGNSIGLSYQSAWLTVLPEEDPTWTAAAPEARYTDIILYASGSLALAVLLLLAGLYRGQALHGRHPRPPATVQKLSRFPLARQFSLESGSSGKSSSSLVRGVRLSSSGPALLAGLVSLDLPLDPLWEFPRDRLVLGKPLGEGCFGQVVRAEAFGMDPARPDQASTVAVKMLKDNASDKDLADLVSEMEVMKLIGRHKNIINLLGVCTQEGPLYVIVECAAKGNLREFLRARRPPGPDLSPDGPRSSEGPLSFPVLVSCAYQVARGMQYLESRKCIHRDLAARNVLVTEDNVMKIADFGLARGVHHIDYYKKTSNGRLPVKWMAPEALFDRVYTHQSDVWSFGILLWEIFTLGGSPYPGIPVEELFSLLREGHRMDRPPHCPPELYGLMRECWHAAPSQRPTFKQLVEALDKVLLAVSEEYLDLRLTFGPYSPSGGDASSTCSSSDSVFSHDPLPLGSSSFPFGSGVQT
Below: a set of entries, each annotated with reported BAF3-FGFR4 pIC50.
Please state the value as a number alone, without comment.

| compound | BAF3-FGFR4 pIC50 |
| --- | --- |
| COc1cc(OC)cc(N(CCO)c2ccc3ncc(-c4ccnc(C(=O)NCCCN)c4)nc3c2)c1 [Compound 123] | 5.2 |
| COc1cc(OC)cc(N(CCCNC(C)C)c2ccc3ncc(-c4ccnc(NC(=O)NC(C)C)c4)nc3c2)c1 [Compound 131] | 6.0 |
| COc1cc(OC)cc(N(CCCNCCCO)c2ccc3ncc(-c4ccnc(C(=O)NCCCCN)c4)nc3c2)c1 [Compound 132] | 5.6 |
| COc1cc(OC)cc(N(CC2CC2)c2ccc3ncc(-n4cnc(CO)c4)nc3c2)c1 [Compound 105] | 5.53 |
| COc1cc(OC)cc(N(CCN2CCN(C(C)=O)CC2)c2ccc3ncc(-c4ccc(N)nc4)nc3c2)c1 [Compound 68] | 5.7 |
| COc1cc(OC)cc(N(CCO)c2ccc3ncc(C4=CCN(C(=O)OC(C)(C)C)C4)nc3c2)c1 [Compound 173] | 5.6 |
| COc1cc(OC)cc(N(CCCO)c2ccc3ncc(-c4cccnc4)nc3c2)c1 [Compound 112] | 5.8 |
| COc1cc(OC)cc(N(CCNC(C)C)c2ccc3ncc(-c4ccnc(C(=O)NCCCN)c4)nc3c2)c1 [Compound 146] | 6.3 |
| COc1cc(OC)cc(N(CCCO)c2ccc3ncc(-c4ccnc(C(=O)NCCOCCO)c4)nc3c2)c1 [Compound 186] | 5.57 |
| COc1cc(OC)cc(N(CCO)c2ccc3ncc(-c4ccc(OC)nc4)nc3c2)c1 [Compound 111] | 5.9 |

Query block: State its BAF3-FGFR4 pIC50: COc1cc(OC)cc(N(CCN2CCNCC2)c2ccc3ncc(-c4ccc(N)nc4)nc3c2)c1 [Compound 59]
Result block: 6.1

Query block: # return recorded BAF3-FGFR4 pIC50 for entry COc1cc(OC)cc(N(CCNC(C)C)c2ccc3ncc(N4CCC(CN)CC4)nc3c2)c1 [Compound 67]
Result block: 6.2

Query block: Identify the reported BAF3-FGFR4 pIC50 for the following entry. COc1cc(OC)cc(N(CCCO)c2ccc3ncc(-c4ccc(N5CCOCC5)nc4)nc3c2)c1 [Compound 124]
Result block: 6.1

Query block: Provide BAF3-FGFR4 pIC50 value for the following compound: COc1cc(OC)cc(N(CCNC(C)C)c2ccc3ncc(-n4cnc(CO)c4)nc3c2)c1 [Compound 77]
Result block: 6.9
